meta.source: ChEMBL document CHEMBL4425133

# Assayed system: Cytochrome P450 3A4 (Homo sapiens)
# Sequence (P08684 whole entry): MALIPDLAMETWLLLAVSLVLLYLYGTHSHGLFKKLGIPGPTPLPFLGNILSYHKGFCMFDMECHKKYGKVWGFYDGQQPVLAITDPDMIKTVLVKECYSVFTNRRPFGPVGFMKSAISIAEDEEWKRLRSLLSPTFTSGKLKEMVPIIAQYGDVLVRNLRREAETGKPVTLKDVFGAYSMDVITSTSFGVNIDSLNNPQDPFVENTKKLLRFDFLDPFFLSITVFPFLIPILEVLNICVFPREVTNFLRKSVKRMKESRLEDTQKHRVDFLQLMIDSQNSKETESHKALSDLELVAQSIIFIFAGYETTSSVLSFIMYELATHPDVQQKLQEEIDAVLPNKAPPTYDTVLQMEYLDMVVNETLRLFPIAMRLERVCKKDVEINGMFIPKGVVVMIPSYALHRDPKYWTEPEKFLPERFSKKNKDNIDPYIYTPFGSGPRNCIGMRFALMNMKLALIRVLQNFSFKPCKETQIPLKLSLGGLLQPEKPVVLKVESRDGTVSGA
# Experimental details: Mechanism based time dependent inhibition of human recombinant CYP3A4 co-expressed with human P450 reductase and human b5 reductase assessed as reduction in 7-Hydroxyquinoline production using 7-benzyloxyquinoline as substrate and NADPH measured every 3 mins for 15 mins by fluorimetry
# Type: ADME
# Experimental conditions: recombinant enzyme, 0.25 h
Please note: INH exactly at -10 %/min is False. Only values below -10 %/min get True.

State whether -10 %/min exceeds INH recorded for O=C(NCCN1CCOCC1)Nc1nc2ccc(Sc3nnc4ccc(OC5CCCCC5)nn34)cc2s1 . False

Try this compound too: CCOc1ccc2nnc(Sc3ccc4nc(NC(=O)NCCN5CCOCC5)sc4c3)n2n1 True

Next record, please: O=C(NCCN1CCOCC1)Nc1nc2ccc(Sc3nnc4ccc(NC5CCCCC5)nn34)cc2s1 False

And CCCCOc1ccc2nnc(Sc3ccc4nc(NC(=O)NCCN5CCOCC5)sc4c3)n2n1 ? True

Another compound: O=C(NCCN1CCOCC1)Nc1nc2ccc(Sc3nnc4ccc(NC5CCOCC5)nn34)cc2s1 True
